// provenance: patent US12581252B2

Overview of reported pIC50 across a group of compounds:
Molecular target: H1047R PIK3CA enzyme (Homo sapiens, UniProt P42336, H1047R)
Sequence (P42336 whole entry H1047R): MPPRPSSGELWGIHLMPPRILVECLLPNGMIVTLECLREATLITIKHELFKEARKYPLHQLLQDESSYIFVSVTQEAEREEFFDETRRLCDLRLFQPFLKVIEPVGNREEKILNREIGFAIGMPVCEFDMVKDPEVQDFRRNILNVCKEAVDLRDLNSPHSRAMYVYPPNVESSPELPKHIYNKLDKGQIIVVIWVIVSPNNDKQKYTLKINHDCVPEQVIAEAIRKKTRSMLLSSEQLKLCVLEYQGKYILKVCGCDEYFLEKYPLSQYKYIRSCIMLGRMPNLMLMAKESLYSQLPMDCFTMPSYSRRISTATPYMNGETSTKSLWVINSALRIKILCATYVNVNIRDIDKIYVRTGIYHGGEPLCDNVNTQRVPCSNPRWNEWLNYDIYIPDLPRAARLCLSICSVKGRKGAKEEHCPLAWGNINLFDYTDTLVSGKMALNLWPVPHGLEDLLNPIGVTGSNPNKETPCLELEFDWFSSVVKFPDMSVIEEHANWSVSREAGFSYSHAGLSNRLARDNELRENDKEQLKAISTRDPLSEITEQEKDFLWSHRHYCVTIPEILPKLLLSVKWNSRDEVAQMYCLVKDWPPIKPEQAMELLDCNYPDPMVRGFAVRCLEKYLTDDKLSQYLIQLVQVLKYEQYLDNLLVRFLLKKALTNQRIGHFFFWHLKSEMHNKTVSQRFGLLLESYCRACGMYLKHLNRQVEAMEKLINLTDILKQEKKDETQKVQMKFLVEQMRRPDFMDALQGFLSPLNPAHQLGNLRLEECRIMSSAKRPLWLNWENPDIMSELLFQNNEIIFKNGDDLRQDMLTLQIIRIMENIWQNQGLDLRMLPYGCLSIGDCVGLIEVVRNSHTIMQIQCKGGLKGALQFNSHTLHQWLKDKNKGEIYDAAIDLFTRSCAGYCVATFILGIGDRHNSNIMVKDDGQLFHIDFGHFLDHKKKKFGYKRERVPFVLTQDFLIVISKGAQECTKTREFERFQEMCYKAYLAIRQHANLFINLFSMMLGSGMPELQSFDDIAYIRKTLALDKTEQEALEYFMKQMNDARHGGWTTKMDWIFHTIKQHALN
Sequence (P27986 whole entry partner): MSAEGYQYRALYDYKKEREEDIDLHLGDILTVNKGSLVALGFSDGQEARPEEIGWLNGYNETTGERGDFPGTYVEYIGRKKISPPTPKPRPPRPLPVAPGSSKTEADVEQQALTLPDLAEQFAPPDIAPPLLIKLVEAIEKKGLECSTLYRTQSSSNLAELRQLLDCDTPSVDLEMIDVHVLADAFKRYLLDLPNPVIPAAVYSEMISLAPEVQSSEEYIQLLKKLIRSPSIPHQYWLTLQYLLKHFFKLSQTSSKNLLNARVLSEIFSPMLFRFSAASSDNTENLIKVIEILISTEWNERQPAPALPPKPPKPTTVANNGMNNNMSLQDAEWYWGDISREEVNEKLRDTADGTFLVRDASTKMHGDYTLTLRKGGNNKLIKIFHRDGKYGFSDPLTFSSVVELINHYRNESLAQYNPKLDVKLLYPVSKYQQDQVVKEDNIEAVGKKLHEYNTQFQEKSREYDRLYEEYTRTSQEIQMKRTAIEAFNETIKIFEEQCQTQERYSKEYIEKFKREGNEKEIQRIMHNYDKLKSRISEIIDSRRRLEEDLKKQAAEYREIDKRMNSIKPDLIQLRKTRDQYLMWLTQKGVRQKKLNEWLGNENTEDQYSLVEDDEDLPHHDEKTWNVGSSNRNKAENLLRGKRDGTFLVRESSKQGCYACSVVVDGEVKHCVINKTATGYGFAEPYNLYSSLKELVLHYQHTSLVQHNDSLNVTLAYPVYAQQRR
Assay: ADP-Glo Biochemical PIK3CA Kinase Assay
Procedure: Compounds to be assayed were plated in 16 doses of 1:2 serial dilutions (20 nL volume each well) on a 1536-well plate, and the plate warmed to room temperature. […] To the well was added 1 μL of 200 μM ATP and 20 μM of diC8-PIP2 in Substrate Assay Buffer (50 mM HEPES pH7.4, 50 mM NaCl, 5 mM DTT and 0.03% CHAPS) to start the reaction, and the plate was shaken for 10 seconds, then spun briefly at 1500 rpm, and then incubated for 60 minutes at room temperature. […]
pIC50: −log10 of the molar value.

Take a look at these entries with their results.
compound="O=C1N[C@H](c2cc(F)ccc2Cl)c2c(NC(=O)[C@H]3CC(C(F)(F)F)C[C@@H](O)C3)cc(Br)cc21 (single isomer, unassigned) [Compound I-2274]" result="4.00 to 5.00"
compound="O=C1N[C@@H](c2cc(F)ccc2Cl)c2c(NC(=O)N3C[C@](O)(C(F)F)c4cc(F)ccc43)cc(Cl)cc21 (single isomer, unassigned) [Compound I-2590]" result="5.00 to 6.00"
compound="Cn1cc(-c2cc(NC(=O)c3cc(F)cc(C(F)(F)F)c3)c3c(c2)C(=O)NC3c2cc(F)ccc2Cl)c(C#N)n1 (stereo not shown) [Compound I-1656]" result="≥ 7.00"

Next, consider the following compound.
Query: Item Cc1cc2cnn(C)c2cc1-c1cc(NC(=O)c2cc(F)cc(C(F)(F)F)c2)c2c(c1)C(=O)NC2c1cc(F)ccc1Cl (stereo not shown) [Compound I-933] has what recorded pIC50?
Result: 6.30 to 7.00

---

target: H1047R PIK3CA enzyme (Homo sapiens, UniProt P42336, H1047R); assay: ADP-Glo Biochemical PIK3CA Kinase Assay
pIC50: −log10 of the molar value.
pIC50: recorded values

Query: I have this compound here, N#Cc1c(-c2cc(NC(=O)c3cc(F)cc(C(F)(F)F)c3)c3c(c2)C(=O)N[C@@H]3c2cc(F)ccc2Cl)cnn1C(F)F , and I need its recorded pIC50.
Result: 5.00 to 6.00

Query: Which pIC50 is reported for this compound? O=C1N[C@H](c2cc(F)ccc2Cl)c2c(NC(=O)N3C[C@](O)(C(F)(F)F)c4cc(F)ccc43)ccc(Cl)c21 (single isomer, unassigned)
Result: ≥ 7.00

Query: Recorded pIC50 for O=C(Nc1cc(F)cc2c1C(c1cc(F)ccc1Cl)NC2=O)c1cc(F)cc(C(F)(F)F)c1 (stereo not drawn) , please?
Result: ≥ 7.00

---

experiment: cells; conditions: Homo sapiens, MCF-10A, read-out: MCF10A IC50
pIC50: −log10 of the molar value.
propertyName: pIC50

See these solved cases before continuing.
compound="O=C(Nc1cc(-c2cc3ncccc3[nH]2)cc2c1C(c1cc(F)ccc1Cl)NC2=O)c1cc(F)cc(C(F)(F)F)c1 (stereo not drawn)" propertyname=pIC50 result="> 6.00"
compound="O=C1NC(c2ccccc2C(F)F)c2c(NC(=O)c3nsc4ccccc34)cccc21 (stereo not drawn)" propertyname=pIC50 result="5.30 to 6.00"
compound="O=C(Nc1cc(-c2ccnn2CC2CC2)cc2c1C(c1cc(F)ccc1Cl)NC2=O)c1cc(F)cc(C(F)(F)F)c1 (stereo not drawn)" propertyname=pIC50 result="> 6.00"
compound="N#Cc1cc(NC(=O)N2C[C@](O)(C(F)(F)F)c3cc(F)ccc32)c2c(c1)C(=O)N[C@@H]2c1cc(F)ccc1Cl (single isomer, unassigned)" propertyname=pIC50 result="> 6.00"
compound="C[C@]1(C(=O)Nc2cc(Br)cc3c2[C@@H](c2cc(F)ccc2Cl)NC3=O)CCC[C@@H](C(F)(F)F)C1 (single isomer, unassigned)" propertyname=pIC50 result="> 6.00"

Query: # query: pIC50 of entry O=C(Nc1cc(NC2=N[C@H](C(F)(F)F)CO2)cc2c1[C@H](c1cc(F)ccc1Cl)NC2=O)c1cc(F)cc(C(F)(F)F)c1 (single isomer, unassigned)
Result: 5.30 to 6.00

Query: Sample O=C1N[C@@H](c2cc(F)ccc2Cl)c2c(NC(=O)N3C[C@@H](O)c4ccc(F)cc43)cccc21 (stereo in doubt) — what was its pIC50?
Result: > 6.00

Query: Any idea what pIC50 was measured for O=C(Nc1cc(-c2cccc3c2CCNC3=O)cc2c1C(c1cc(F)ccc1Cl)NC2=O)c1cc(F)cc(C(F)(F)F)c1 (stereo not drawn) ?
Result: > 6.00
